- method.description: chemical genetic growth profiling, strain panel (AID 1159580);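 also: tested at 20 µM; growth read once vehicle control cultures reached saturation at 30 °C; 1 = growth at the plate median or of vehicle wells; lower values mean less growth of the strain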
- condition.info: S. cerevisiae deletion strains, growth OD, locus YJL164C, strain tpk1, hits give low values
In all, about 5,500 compounds went through this assay and about 2,000 (36%) were called active. Roughly 18% stayed inconclusive and do not appear here. This is one part of the list.
Please provide measured normalized growth for the entries that follow.

The cases that follow already have their normalized growth on record.
{"columns": ["compound", "normalized growth"],
 "data": [
  ["CC1(C)C2CC[C@]3(C)C(C(=O)C=C4[C@@H]5C[C@@](C)(C(=O)O)CC[C@]5(C)CC[C@]43C)[C@@]2(C)CC[C@@H]1OC(=O)CCC(=O)O (stereo partly specified)", "0.982 (inactive)"],
  ["Cn1cc[nH]c1=S", "1.02 (inactive)"],
  ["CCCCOc1ccc(CC(=O)NO)cc1", "0.985 (inactive)"],
  ["O=C(O)C1CC([C@@H]2CCCCN2)CN2CCCCC12 (stereo partly specified)", "0.997 (inactive)"],
  ["COc1ccc2c(c1)OC[C@@H](Cc1ccc(OC)c(OC)c1)[C@H]2O", "0.993 (inactive)"]
]}

Alright, here's another compound for you.
Could you share which normalized growth value was measured for `CC(=O)OCC(CCn1cnc2cnc(N)nc21)COC(C)=O` ?
1.01 (inactive)
